Each recorded value in this set is attributed to ChEMBL document CHEMBL1126634.

# measured-on: Human immunodeficiency virus type 1 protease (Human immunodeficiency virus 1)
# measurement-notes: Tested against S2-binding site of HIV-1 protease
pIC50: −log10 of the molar value.
measured-attribute: pIC50

(1) CC(C)[C@H]1SCC[C@H]1OC(=O)N[C@@H](Cc1ccccc1)[C@H](O)CN1C[C@H]2CCCC[C@H]2C[C@H]1C(=O)NC(C)(C)C
(2) CC[C@H]1[C@@H](OC(=O)N[C@@H](Cc2ccccc2)[C@H](O)CN2C[C@H]3CCCC[C@H]3C[C@H]2C(=O)NC(C)(C)C)CCS1(=O)=O
(3) CC(C)(C)NC(=O)[C@@H]1C[C@@H]2CCCC[C@@H]2CN1C[C@@H](O)[C@H](Cc1ccccc1)NC(=O)OCCS(C)(=O)=O
// query Ranking criterion: pIC50, increasing numeric value. Items: as listed above. Would you mind listing the labels in the order asked for?
// result 3, 1, 2
(3: 5.99, 1: 8.05, 2: 8.27)

----------
# measured-on: Human immunodeficiency virus type 1 protease (Human immunodeficiency virus 1) (UniProt Q72874)
# measurement-notes: Antiviral potency of HIV-1 in MT-4 human T lymphoid cells with IIIb isolate
# Type: functional, cell-based
measured-attribute: IC95 (nM)

| structure-string | measured-attribute | reading-unit | readout-number |
| --- | --- | --- | --- |
| C[C@@H]1OCC[C@@H]1OC(=O)N[C@@H](Cc1ccccc1)[C@H](O)CN1C[C@H]2CCCC[C@H]2C[C@H]1C(=O)NC(C)(C)C | IC95 | nM | 400 |
| CC(C)(C)NC(=O)[C@@H]1C[C@@H]2CCCC[C@@H]2CN1C[C@@H](O)[C@H](Cc1ccccc1)NC(=O)O[C@H]1CCOC1 | IC95 | nM | 800 |
| C[C@H]1[C@@H](OC(=O)N[C@@H](Cc2ccccc2)[C@H](O)CN2C[C@H]3CCCC[C@H]3C[C@H]2C(=O)NC(C)(C)C)CCS1(=O)=O | IC95 | nM | 200 |
| C[C@H]1OCC[C@H]1OC(=O)N[C@@H](Cc1ccccc1)[C@H](O)CN1C[C@H]2CCCC[C@H]2C[C@H]1C(=O)NC(C)(C)C | IC95 | nM | 1600 |

(A) CC(C)C[C@H]1[C@@H](OC(=O)N[C@@H](Cc2ccccc2)[C@H](O)CN2C[C@H]3CCCC[C@H]3C[C@H]2C(=O)NC(C)(C)C)CCS1(=O)=O
(B) CC(C)[C@H]1[C@@H](OC(=O)N[C@@H](Cc2ccccc2)[C@H](O)CN2C[C@H]3CCCC[C@H]3C[C@H]2C(=O)NC(C)(C)C)CCS1(=O)=O
// query I'm curious whether A or B has the smaller IC95 number. Which is it? Respond using the label that marks the chosen record.
// result B
(B: 200 nM, A: 400 nM)

----------
# measured-on: Human immunodeficiency virus type 1 protease (Human immunodeficiency virus 1, UniProt Q72874)
# measurement-notes: Tested against S2-binding site of HIV-1 protease
pIC50: −log10 of the molar value.
measured-attribute: pIC50

| structure-string | readout-number |
| --- | --- |
| C[C@H]1OCC[C@H]1OC(=O)N[C@@H](Cc1ccccc1)[C@H](O)CN1C[C@H]2CCCC[C@H]2C[C@H]1C(=O)NC(C)(C)C | 6.77 |
| C[C@H]1[C@@H](OC(=O)N[C@@H](Cc2ccccc2)[C@H](O)CN2C[C@H]3CCCC[C@H]3C[C@H]2C(=O)NC(C)(C)C)CCS1(=O)=O | 7.94 |
| CC(C)(C)NC(=O)[C@@H]1C[C@@H]2CCCC[C@@H]2CN1C[C@@H](O)[C@H](Cc1ccccc1)NC(=O)O[C@H]1CCS(=O)(=O)C1 | 7.12 |
| CC(C)C[C@H]1[C@@H](OC(=O)N[C@@H](Cc2ccccc2)[C@H](O)CN2C[C@H]3CCCC[C@H]3C[C@H]2C(=O)NC(C)(C)C)CCS1(=O)=O | 7.92 |
| CC(C)[C@H]1[C@@H](OC(=O)N[C@@H](Cc2ccccc2)[C@H](O)CN2C[C@H]3CCCC[C@H]3C[C@H]2C(=O)NC(C)(C)C)CCS1(=O)=O | 7.96 |

(A) CC(C)[C@@H]1[C@H](OC(=O)N[C@@H](Cc2ccccc2)[C@H](O)CN2C[C@H]3CCCC[C@H]3C[C@H]2C(=O)NC(C)(C)C)CCS1(=O)=O
(B) NC(=O)OC[C@@H]1CCCOC1
(C) CC(C)C[C@@H]1[C@H](OC(=O)N[C@@H](Cc2ccccc2)[C@H](O)CN2C[C@H]3CCCC[C@H]3C[C@H]2C(=O)NC(C)(C)C)CCS1(=O)=O
(D) CC[C@@H]1[C@H](OC(=O)N[C@@H](Cc2ccccc2)[C@H](O)CN2C[C@H]3CCCC[C@H]3C[C@H]2C(=O)NC(C)(C)C)CCS1(=O)=O
// query Exam item: list the entries in increasing order of pIC50. Would you mind listing the labels in the order asked for?
// result B, C, D, A
